// reported SPOT peptide array binding signal intensity for each item listed
Target: ScSho1
Experiment: SPOT peptide array binding signal intensity (averaged, normalized) (arbitrary units (background-subtracted, floor 0; scale differs between SH3 domains)); higher = stronger binding of the SH3 domain to the peptide

Examples with their reported SPOT peptide array binding signal intensity follow.
Tell me measured SPOT peptide array binding signal intensity for RSKRLFPVRPMATAH please.
661

Tell me measured SPOT peptide array binding signal intensity for FPGKKSPRLPHRNKK please.
322

Further cases:
Tell me measured SPOT peptide array binding signal intensity for DLFKPLPEPPTELGR please.
5560

Tell me measured SPOT peptide array binding signal intensity for DHPKGPPPPPPPDEK please.
≤ 0

Values from the supplement of paper PMC4466140
